Tested on: everted segments of rat jejunum
Assay: Influx of weak electrolytes into everted segments of rat jejunum in vitro
Conditions: Table III; 1 mM, pH 7.40, 1 min, 37C; mean SE (n)
Values of Influx Jejunum strictly less than 80 nmol.100mg dry wt-1.min-1 map to label 1, and values of at least 80 nmol.100mg dry wt-1.min-1 map to label 0.

>  <Compound>
CN1C(=O)NC(=O)C(C)(C2=CCCCC2)C1=O (centres unmarked) [Hexobarbital]

>  <Qualitative label>
label 0

$$$$
>  <Compound>
O=C(O)Cc1ccccc1

>  <Qualitative label>
label 1

$$$$
>  <Compound>
CCC(=O)C(CC(C)N(C)C)(c1ccccc1)c1ccccc1 (centres unmarked)

>  <Qualitative label>
label 0

$$$$
>  <Compound>
NC1CCCCC1

>  <Qualitative label>
label 1

$$$$
>  <Compound>
CC(C)C(=O)O

>  <Qualitative label>
label 1

$$$$
>  <Compound>
C=CCN1CC[C@]23c4c5ccc(O)c4O[C@H]2C(=O)CC[C@@]3(O)[C@H]1C5

>  <Qualitative label>
label 0

$$$$
>  <Compound>
CC(=O)O

>  <Qualitative label>
label 1

$$$$
>  <Compound>
CCC1(c2ccccc2)C(=O)NC(=O)NC1=O

>  <Qualitative label>
label 0

$$$$
>  <Compound>
CCCCCC(=O)O

>  <Qualitative label>
label 1

$$$$
>  <Compound>
O=C(O)c1ccccc1

>  <Qualitative label>
label 1

$$$$

* * *

System: everted segments of rat jejunum
Assay: Influx of weak electrolytes into everted segments of rat jejunum in vitro
Conditions: Table V; calculated as d/DSc

>  <Compound>
CN1C(=O)NC(=O)C(C)(C2=CCCCC2)C1=O (stereo not drawn) [Hexobarbital]

>  <Target>
everted segments of rat jejunum

>  <Resistance Jejunum Unstirred layer (cm-3.min.100 mg dry wt)>
2.86

$$$$
>  <Compound>
CCCCCCCC(=O)O

>  <Target>
everted segments of rat jejunum

>  <Resistance Jejunum Unstirred layer (cm-3.min.100 mg dry wt)>
2.47

$$$$
>  <Compound>
O=C(O)C(c1ccccc1)c1ccccc1

>  <Target>
everted segments of rat jejunum

>  <Resistance Jejunum Unstirred layer (cm-3.min.100 mg dry wt)>
2.81

$$$$
>  <Compound>
CCCCCCCCCCN

>  <Target>
everted segments of rat jejunum

>  <Resistance Jejunum Unstirred layer (cm-3.min.100 mg dry wt)>
2.78

$$$$
>  <Compound>
CCCCCC(=O)O

>  <Target>
everted segments of rat jejunum

>  <Resistance Jejunum Unstirred layer (cm-3.min.100 mg dry wt)>
2.13

$$$$
>  <Compound>
NCc1ccccc1

>  <Target>
everted segments of rat jejunum

>  <Resistance Jejunum Unstirred layer (cm-3.min.100 mg dry wt)>
1.92

$$$$

* * *

Test system: everted segments of rat jejunum
Assay: Influx of weak electrolytes into everted segments of rat jejunum in vitro
Settings: Table V; calculated as d/DSc
Parameter: Resistance Jejunum Unstirred layer. Scope: all listed entries.

>  <Compound>
CCC(=O)C(CC(C)N(C)C)(c1ccccc1)c1ccccc1 (centres unmarked)

>  <Resistance Jejunum Unstirred layer, cm-3.min.100 mg dry wt>
3.74

$$$$
>  <Compound>
CCC(=O)O

>  <Resistance Jejunum Unstirred layer, cm-3.min.100 mg dry wt>
1.53

$$$$
>  <Compound>
CC(C)C(=O)O

>  <Resistance Jejunum Unstirred layer, cm-3.min.100 mg dry wt>
1.75

$$$$
>  <Compound>
CCCCCCCCCC(=O)O

>  <Resistance Jejunum Unstirred layer, cm-3.min.100 mg dry wt>
2.79

$$$$
>  <Compound>
NC1CCCCC1

>  <Resistance Jejunum Unstirred layer, cm-3.min.100 mg dry wt>
1.95

$$$$
>  <Compound>
CCC1(c2ccccc2)C(=O)NC(=O)NC1=O

>  <Resistance Jejunum Unstirred layer, cm-3.min.100 mg dry wt>
2.81

$$$$
>  <Compound>
C=CCN1CC[C@]23c4c5ccc(O)c4O[C@H]2C(=O)CC[C@@]3(O)[C@H]1C5

>  <Resistance Jejunum Unstirred layer, cm-3.min.100 mg dry wt>
3.38

$$$$
>  <Compound>
CC(C)N

>  <Resistance Jejunum Unstirred layer, cm-3.min.100 mg dry wt>
1.47

$$$$
>  <Compound>
O=C(O)Cc1ccccc1

>  <Resistance Jejunum Unstirred layer, cm-3.min.100 mg dry wt>
2.16

$$$$
>  <Compound>
CCCCC(=O)O

>  <Resistance Jejunum Unstirred layer, cm-3.min.100 mg dry wt>
1.95

$$$$
>  <Compound>
CCCCCCC(=O)O

>  <Resistance Jejunum Unstirred layer, cm-3.min.100 mg dry wt>
2.31

$$$$

* * *

System: everted segments of rat jejunum
Experiment: Influx of weak electrolytes into everted segments of rat jejunum in vitro
Conditions: Table III; 1 mM, pH 7.40, 1 min, 37C; mean SE (n)
Values of Influx Jejunum strictly less than 20 nmol.100mg dry wt-1.min-1 map to yes, and values of at least 20 nmol.100mg dry wt-1.min-1 map to no.

>  <Structure smiles>
CCCC(=O)O

>  <Target>
everted segments of rat jejunum

>  <Qualitative label>
yes

$$$$
>  <Structure smiles>
CCCCC(=O)O

>  <Target>
everted segments of rat jejunum

>  <Qualitative label>
no

$$$$
>  <Structure smiles>
CC(C)N

>  <Target>
everted segments of rat jejunum

>  <Qualitative label>
yes

$$$$
>  <Structure smiles>
CCCCCCCC(=O)O

>  <Target>
everted segments of rat jejunum

>  <Qualitative label>
no

$$$$
>  <Structure smiles>
CCC(=O)O

>  <Target>
everted segments of rat jejunum

>  <Qualitative label>
yes

$$$$
>  <Structure smiles>
NCc1ccccc1

>  <Target>
everted segments of rat jejunum

>  <Qualitative label>
no

$$$$
>  <Structure smiles>
O=C(O)C(c1ccccc1)c1ccccc1

>  <Target>
everted segments of rat jejunum

>  <Qualitative label>
yes

$$$$
>  <Structure smiles>
CC(C)CC(=O)O

>  <Target>
everted segments of rat jejunum

>  <Qualitative label>
no

$$$$

* * *

System: everted segments of rat ileum
Experiment: Influx of weak electrolytes into everted segments of rat ileum in vitro
Details: Table III; 1 mM, pH 7.40, 1 min, 37C; mean SE (n)
Parameter: Influx Ileum. Scope: all listed entries.
Assay readout: Influx Ileum (nmol.100mg dry wt-1.min-1)

>  <Compound>
CCCCCCCC(=O)O

>  <Target>
everted segments of rat ileum

>  <Recorded value>
56

$$$$
>  <Compound>
C=CCN1CC[C@]23c4c5ccc(O)c4O[C@H]2C(=O)CC[C@@]3(O)[C@H]1C5

>  <Target>
everted segments of rat ileum

>  <Recorded value>
263

$$$$
>  <Compound>
O=C(O)c1ccccc1

>  <Target>
everted segments of rat ileum

>  <Recorded value>
15

$$$$
>  <Compound>
CC(C)C(=O)O

>  <Target>
everted segments of rat ileum

>  <Recorded value>
13

$$$$
>  <Compound>
CCCCC(=O)O

>  <Target>
everted segments of rat ileum

>  <Recorded value>
18

$$$$
>  <Compound>
CCC(=O)C(CC(C)N(C)C)(c1ccccc1)c1ccccc1 (centres unmarked)

>  <Target>
everted segments of rat ileum

>  <Recorded value>
259

$$$$
>  <Compound>
CCCCCC(=O)O

>  <Target>
everted segments of rat ileum

>  <Recorded value>
29

$$$$
>  <Compound>
CCC(=O)O

>  <Target>
everted segments of rat ileum

>  <Recorded value>
9

$$$$
>  <Compound>
CC(C)CC(=O)O

>  <Target>
everted segments of rat ileum

>  <Recorded value>
20

$$$$
>  <Compound>
CC(=O)O

>  <Target>
everted segments of rat ileum

>  <Recorded value>
3

$$$$
>  <Compound>
O=C(O)C(c1ccccc1)c1ccccc1

>  <Target>
everted segments of rat ileum

>  <Recorded value>
7

$$$$

* * *

Parameter: Resistance Ileum Unstirred layer. Scope: all listed entries.
Test system: everted segments of rat ileum
Test: Influx of weak electrolytes into everted segments of rat ileum in vitro
Conditions: Table V; calculated as d/DSc
Assay readout: Resistance Ileum Unstirred layer (cm-3.min.100 mg dry wt)

>  <Compound>
NC1CCCCC1

>  <Assay readout>
Resistance Ileum Unstirred layer

>  <Recorded value>
2.05

$$$$
>  <Compound>
CN1C(=O)NC(=O)C(C)(C2=CCCCC2)C1=O (stereo not drawn) [Hexobarbital]

>  <Assay readout>
Resistance Ileum Unstirred layer

>  <Recorded value>
3.00

$$$$
>  <Compound>
CC(C)C(=O)O

>  <Assay readout>
Resistance Ileum Unstirred layer

>  <Recorded value>
1.84

$$$$
>  <Compound>
CCC1(c2ccccc2)C(=O)NC(=O)NC1=O

>  <Assay readout>
Resistance Ileum Unstirred layer

>  <Recorded value>
2.95

$$$$
>  <Compound>
CCCCCCCCCC(=O)O

>  <Assay readout>
Resistance Ileum Unstirred layer

>  <Recorded value>
2.93

$$$$
>  <Compound>
CCCCCCCC(=O)O

>  <Assay readout>
Resistance Ileum Unstirred layer

>  <Recorded value>
2.60

$$$$
>  <Compound>
CCC(=O)O

>  <Assay readout>
Resistance Ileum Unstirred layer

>  <Recorded value>
1.61

$$$$
>  <Compound>
CCC(=O)C(CC(C)N(C)C)(c1ccccc1)c1ccccc1 (stereo not drawn)

>  <Assay readout>
Resistance Ileum Unstirred layer

>  <Recorded value>
3.93

$$$$
>  <Compound>
CCCCC(=O)O

>  <Assay readout>
Resistance Ileum Unstirred layer

>  <Recorded value>
2.05

$$$$
>  <Compound>
CCCCCCC(=O)O

>  <Assay readout>
Resistance Ileum Unstirred layer

>  <Recorded value>
2.43

$$$$
>  <Compound>
CC(C)N

>  <Assay readout>
Resistance Ileum Unstirred layer

>  <Recorded value>
1.54

$$$$
>  <Compound>
CCCCCC(=O)O

>  <Assay readout>
Resistance Ileum Unstirred layer

>  <Recorded value>
2.24

$$$$
>  <Compound>
O=C(O)Cc1ccccc1

>  <Assay readout>
Resistance Ileum Unstirred layer

>  <Recorded value>
2.27

$$$$
>  <Compound>
O=C(O)C(c1ccccc1)c1ccccc1

>  <Assay readout>
Resistance Ileum Unstirred layer

>  <Recorded value>
2.95

$$$$
